Item-by-item account of composite z-score
Molecular target: Torsin-1A (Homo sapiens) (UniProt O14656)
Sequence (O14656 whole entry, looked up): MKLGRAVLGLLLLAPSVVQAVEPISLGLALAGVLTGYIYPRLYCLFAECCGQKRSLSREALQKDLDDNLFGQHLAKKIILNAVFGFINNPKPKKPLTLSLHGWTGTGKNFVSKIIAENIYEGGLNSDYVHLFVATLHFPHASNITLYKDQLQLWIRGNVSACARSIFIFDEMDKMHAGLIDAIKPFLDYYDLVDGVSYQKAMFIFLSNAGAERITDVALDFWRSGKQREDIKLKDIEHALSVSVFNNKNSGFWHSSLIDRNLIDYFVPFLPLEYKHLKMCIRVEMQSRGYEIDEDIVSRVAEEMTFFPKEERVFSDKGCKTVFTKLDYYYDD
Experiment: small-molecule binders of mutant TOR1A in lysate, primary screen, cell lysate, small-molecule microarray, COS7 lysate, 635/667 nm fluorescence (AID 1150);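 further: score pools 667 nm emission and signal to noise measuring lysate protein binding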
Details: COS7 hTOR1A mutant lysate, 635 nm fluorescence, higher = more signal
Number, no unit, nothing else.

>  <COMPOUND>
CCOC(=O)[C@H]1[C@@H]2C(=O)N3CCC[C@H]3[C@H](O[Si](C(C)C)(C(C)C)C(C)C)[C@H]2C=C2CCN(S(=O)(=O)c3ccc(C)cc3)C[C@H]21

>  <EXPERIMENTAL SYSTEM>
Torsin-1A (Homo sapiens) (UniProt O14656)

>  <composite z-score>
0.163

$$$$
>  <COMPOUND>
CC(C)(C)OC(=O)CC[C@]1(C(=O)NCc2ccccc2)N=C(c2ccc(OCCCO)cc2)O[C@H]1c1ccccc1CN=[N+]=[N-]

>  <EXPERIMENTAL SYSTEM>
Torsin-1A (Homo sapiens) (UniProt O14656)

>  <composite z-score>
0.895

$$$$
>  <COMPOUND>
CC(C)[Si](C#C[Si](C(C)C)(C(C)C)C(C)C)(O[C@H](C)c1cn([C@H](CO)Cc2ccccc2)nn1)C(C)C

>  <EXPERIMENTAL SYSTEM>
Torsin-1A (Homo sapiens) (UniProt O14656)

>  <composite z-score>
0.144

$$$$
>  <COMPOUND>
COc1ccc(C(O)C2C=CC3C(=O)N(c4ccccc4)C(=O)C3N2Nc2ccc([N+](=O)[O-])cc2)cc1 (stereo not given)

>  <EXPERIMENTAL SYSTEM>
Torsin-1A (Homo sapiens) (UniProt O14656)

>  <composite z-score>
0.874

$$$$

response.value for "CCCC[C@@H](O)C1=C(COc2ccccc2)C[C@H]2C(=O)N(C)C(=O)[C@H]2[C@H]1CO" (field: composite z-score) = 0.596

response.value for "CCCNC(=O)[C@@]1(c2ccc([N+](=O)[O-])cc2)CC(=O)N(C2CCCCC2)[C@@H]1c1ccc(CO)cc1" (field: composite z-score) = 0.455

response.value for "COCCCNC(=O)[C@@]1(Sc2ccc(C)cc2)CC(=O)N(C2CCCCC2)[C@@H]1c1ccc(CO)cc1" (field: composite z-score) = -0.424

response.value for "C=C(COC)/C(=C/C[C@H](OC(=O)c1ccncc1)c1ccccc1OCCO)c1cnc2ccccc2c1" (field: composite z-score) = 1.42

response.value for "COC(=O)[C@@]1(Cc2ccccc2)[C@H]2c3cc(C(=O)N(C)C)n(CCc4ccc(O)c(OC)c4)c3C[C@H]2CN1C(=O)c1ccccc1" (field: composite z-score) = 0.212

response.value for "COc1ccc(NC(=O)O[C@H]2[C@H](OC(=O)Nc3ccccc3)[C@@H](OC(=O)Nc3ccccc3)[C@@H](OC)O[C@@H]2CO)cc1" (field: composite z-score) = 1.26
